This collection of values is drawn from patent US20200317776A1.

Molecular target: T1, human TREM2 expressed on cells (human, UniProt Q9NZC2 19-230)
T1 sequence: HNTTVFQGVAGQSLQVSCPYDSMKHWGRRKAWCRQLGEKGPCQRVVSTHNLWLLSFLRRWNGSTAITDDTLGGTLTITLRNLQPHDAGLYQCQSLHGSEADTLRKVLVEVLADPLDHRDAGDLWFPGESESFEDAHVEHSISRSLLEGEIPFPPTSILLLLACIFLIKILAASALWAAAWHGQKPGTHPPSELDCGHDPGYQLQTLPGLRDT
Assay: cell-based or functional assay
Listed binders paired with reported EC50 viability, macrophages D559

[
  {
    "Binder": "AL2p-60 (antibody, IgG1, V domains shown) VH: QVQLVQSGAEVKKPGSSVKVSCKASGYAFSSQWMNWVRQAPGQGLEWMGRIYPGEGDTNYARKFQGRVTITADESTSTAYMELSSLRSEDTAVYYCARLLRNQPGESYAMDYWGQGTLVTVSS VL: GVVMTQTPLSLSVTPGQPASISCRSSQSLVHSNQYTYLHWYLQKPGQSPQLLIYKVSNRRSGVPDRFSGSGSGTDFTLKISRVEAEDVGVYYCSQSTRVPYTFGQGTKLEIK",
    "EC50 viability, macrophages D559 / nM": 0.194
  },
  {
    "Binder": "AL2p-47 huIgG1 (antibody, V domains shown) VH: QVQLVQSGAEVKKPGSSVKVSCKASGYAFSSDWMNWVRQAPGQGLEWMGRIYPGEGDTNYARKFHGRVTITADESTSTAYMELSSLRSEDTAVYYCARLLRNKPGESYAMDYWGQGTLVTVSS VL: DVVMTQTPLSLSVTPGQPASISCRTSQSLVHSNAYTYLHWYLQKPGQSPQLLIYKVSNRVSGVPDRFSGSGSGTDFTLKISRVEAEDVGVYYCSQSTRVPYTFGQGTKLEIKR",
    "EC50 viability, macrophages D559 / nM": 1.56
  },
  {
    "Binder": "AL2p-37 (antibody, IgG1, V domains shown, Fab and IgG formats under one id; also called AL2p-37 huIgG1) VH: QVQLVQSGAEVKKPGASVKVSCKASGYAFSSQWMNWVRQAPGQRLEWIGRIYPGGGDTNYAGKFQGRVTITADTSASTAYMELSSLRSEDTAVYYCARLLRNQPGESYAMDYWGQGTLVTVSS VL: DVVMTQSPDSLAVSLGERATINCRSSQSLVHSNGYTYLHWYQQKPGQSPKLLIYKVSNRFSGVPDRFSGSGSGTDFTLTISSLQAEDVAVYYCSQSTRVPYTFGGGTKVEIK",
    "EC50 viability, macrophages D559 / nM": 18.3
  }
]
